target: Neuronal acetylcholine receptor subunit alpha-7 (Homo sapiens, UniProt P36544); assay: Ratio of Silent agonist activity at human alpha7 nAChR expressed in Xenopus laevis oocytes assessed as increase in net charge in presence of type 2 PAM PNU-120596 relative to ACh to partial agonist activity at human alpha7 nAChR expressed in Xenopus laevis oocytes assessed as increase in net charge relative to ACh; type: cell-based
Sequence (P36544 whole entry): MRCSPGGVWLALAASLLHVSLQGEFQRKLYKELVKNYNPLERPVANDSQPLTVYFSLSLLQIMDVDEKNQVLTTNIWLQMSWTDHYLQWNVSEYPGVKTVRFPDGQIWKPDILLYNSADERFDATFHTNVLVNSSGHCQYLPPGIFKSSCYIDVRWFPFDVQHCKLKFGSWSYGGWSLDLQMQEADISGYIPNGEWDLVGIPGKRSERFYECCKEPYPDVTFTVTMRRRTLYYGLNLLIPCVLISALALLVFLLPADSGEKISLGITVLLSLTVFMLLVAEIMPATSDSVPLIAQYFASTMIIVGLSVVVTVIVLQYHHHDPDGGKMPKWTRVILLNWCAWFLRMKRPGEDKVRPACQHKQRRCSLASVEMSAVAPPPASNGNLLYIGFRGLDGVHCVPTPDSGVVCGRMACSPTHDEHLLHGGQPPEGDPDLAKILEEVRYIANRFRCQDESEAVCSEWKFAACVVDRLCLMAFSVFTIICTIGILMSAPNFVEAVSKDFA
PROPERTY_NAME: Ratio
Please give only the number in your answer, with no unit.

COMPOUND: FC(F)(F)c1cccc(-c2noc(CC3CN4CCC3CC4)n2)c1 (centres undefined)
Ratio: 2
--
COMPOUND: Brc1cccc(-c2noc(CC3CN4CCC3CC4)n2)c1 (centres undefined)
Ratio: 2
--
COMPOUND: C[N+]12CCC(CC1)C(Cc1nc(-c3ccccc3)no1)C2 (centres undefined)
Ratio: 21

Switching to the query record.
Which Ratio reading was recorded for the compound C[N+]12CCC(CC1)C(Cc1nc(-c3cccc(C(F)(F)F)c3)no1)C2 (centres undefined) ?
3

###

target: Neuronal acetylcholine receptor subunit alpha-7 (Homo sapiens, UniProt P36544); experiment: Ratio of Silent agonist activity at human alpha7 nAChR expressed in Xenopus laevis oocytes assessed as increase in net charge in presence of type 2 PAM PNU-120596 relative to ACh to partial agonist activity at human alpha7 nAChR expressed in Xenopus laevis oocytes assessed as increase in net charge relative to ACh; assay type: cell-based
Could you label it 1 if measured Ratio is 10 or higher, and -1 otherwise?

Previously resolved entries follow.
COMPOUND: Ic1cccc(-c2noc(CC3CN4CCC3CC4)n2)c1 (configuration not stated)
TESTED_ON: Neuronal acetylcholine receptor subunit alpha-7 (Homo sapiens, UniProt P36544)
ASSIGNED_CLASS: -1

COMPOUND: COc1ccc(-c2noc(CC3C[N+]4(C)CCC3CC4)n2)cc1 (configuration not stated)
TESTED_ON: Neuronal acetylcholine receptor subunit alpha-7 (Homo sapiens, UniProt P36544)
ASSIGNED_CLASS: 1

Is it the case that C[N+]12CCC(CC1)C(Cc1nc(-c3cccc(Br)c3)no1)C2 (configuration not stated) has Ratio reaching or exceeding 10?
-1

State whether the measured Ratio reaches 10, counting equality as reaching it, for C[N+]12CCC(CC1)C(Cc1nc(-c3cccnc3)no1)C2 (configuration not stated)
1

Would you say c1ccc(-c2noc(CC3CN4CCC3CC4)n2)cc1 (configuration not stated) shows Ratio at minimum 10?
-1

Say whether C[N+]12CCC(CC1)C(Cc1nc(-c3cccc(F)c3)no1)C2 (configuration not stated) shows Ratio of 10 or more.
-1

Evaluate COc1cccc(-c2noc(CC3CN4CCC3CC4)n2)c1 (configuration not stated) : Ratio at minimum 10?
-1

In plain terms: is recorded Ratio at least 10 for C[N+]12CCC(CC1)C(Cc1nc(-c3cccs3)no1)C2 (configuration not stated) ?
-1

Is the recorded value of Ratio equal to or greater than 10 for this compound? Clc1cccc(-c2noc(CC3CN4CCC3CC4)n2)c1 (configuration not stated)
-1

Is it the case that C[N+]12CCC(CC1)C(Cc1nc(-c3ccco3)no1)C2 (configuration not stated) has Ratio reaching or exceeding 10?
1

Please tell me: is the compound COc1cccc(-c2noc(CC3C[N+]4(C)CCC3CC4)n2)c1 (configuration not stated) at or over 10 in terms of Ratio?
1

Source of measurements: ChEMBL document CHEMBL4308856
